molecular target: Human Calpain 1/NS1 (Homo sapiens); test: Calpain inhibition continuous fluorescence (FRET) assay, Human Calpain 1/NS1; type: biochemical; conditions: Column A; read-out: Human Calpain 1/NS1 IC50
Sequence (P07384 whole entry, one chain of several): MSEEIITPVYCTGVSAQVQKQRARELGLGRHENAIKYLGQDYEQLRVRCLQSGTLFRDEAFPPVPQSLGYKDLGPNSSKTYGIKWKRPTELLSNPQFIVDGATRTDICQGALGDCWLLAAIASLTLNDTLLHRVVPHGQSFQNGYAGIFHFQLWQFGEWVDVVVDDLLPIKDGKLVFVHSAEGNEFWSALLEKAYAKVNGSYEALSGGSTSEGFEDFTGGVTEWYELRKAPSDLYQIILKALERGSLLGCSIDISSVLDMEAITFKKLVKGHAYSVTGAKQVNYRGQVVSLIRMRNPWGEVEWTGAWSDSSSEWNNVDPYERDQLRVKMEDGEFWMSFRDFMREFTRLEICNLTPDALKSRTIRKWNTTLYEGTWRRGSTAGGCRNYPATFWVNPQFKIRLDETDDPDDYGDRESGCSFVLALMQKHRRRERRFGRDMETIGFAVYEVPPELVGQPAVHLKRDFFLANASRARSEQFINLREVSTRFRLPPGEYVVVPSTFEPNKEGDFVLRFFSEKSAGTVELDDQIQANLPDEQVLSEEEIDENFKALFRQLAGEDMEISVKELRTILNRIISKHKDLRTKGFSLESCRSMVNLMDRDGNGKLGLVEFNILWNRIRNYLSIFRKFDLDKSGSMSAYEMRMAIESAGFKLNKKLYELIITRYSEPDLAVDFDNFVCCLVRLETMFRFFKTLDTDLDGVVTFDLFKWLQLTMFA
Overview of recorded IC50 for various compounds

# count of solved cases: 5
CC(C)(C)c1cc(C(=O)N[C@@H](Cc2ccccc2)C(=O)C(=O)NC2CC2)n(-c2ccccc2)n1; > 10 µM
NC(=O)C(=O)[C@H](Cc1ccccc1)NC(=O)c1ncoc1-c1ccccc1; < 3 µM
Cc1cc(C(=O)N[C@@H](Cc2ccccc2)C(=O)C(N)=O)n(-c2ncc(-c3ccccc3)o2)n1; < 3 µM
Cc1cc(C(=O)N[C@@H](Cc2ccccc2)C(=O)C(N)=O)n(-c2ccnc(Cl)n2)n1; < 3 µM
Cc1cc(C(=O)N[C@@H](Cc2ccccc2)C(=O)C(=O)NC2CC2)n(-c2cccc3ncccc23)n1; > 10 µM

Kindly state the measured IC50 obtained for Cc1cc(C(=O)N[C@@H](Cc2ccccc2)C(=O)C(=O)NC2CC2)n(-c2nc(-c3ccccc3)cs2)n1 with Human Calpain 1/NS1 (Homo sapiens). < 3 µM

Kindly state the measured IC50 obtained for Cc1cc(C(=O)N[C@@H](Cc2ccccc2)C(=O)C(N)=O)n(-c2cccc(CNCc3ccccc3)c2)n1 with Human Calpain 1/NS1 (Homo sapiens). < 3 µM

* * *

target: Human Calpain 2/NS1 (Homo sapiens, UniProt P17655); experiment: Calpain inhibition continuous fluorescence (FRET) assay, Human Calpain 2/NS1; assay type: biochemical; conditions: read-out: Human Calpain 2/NS1 IC50
Sequence (P17655 whole entry): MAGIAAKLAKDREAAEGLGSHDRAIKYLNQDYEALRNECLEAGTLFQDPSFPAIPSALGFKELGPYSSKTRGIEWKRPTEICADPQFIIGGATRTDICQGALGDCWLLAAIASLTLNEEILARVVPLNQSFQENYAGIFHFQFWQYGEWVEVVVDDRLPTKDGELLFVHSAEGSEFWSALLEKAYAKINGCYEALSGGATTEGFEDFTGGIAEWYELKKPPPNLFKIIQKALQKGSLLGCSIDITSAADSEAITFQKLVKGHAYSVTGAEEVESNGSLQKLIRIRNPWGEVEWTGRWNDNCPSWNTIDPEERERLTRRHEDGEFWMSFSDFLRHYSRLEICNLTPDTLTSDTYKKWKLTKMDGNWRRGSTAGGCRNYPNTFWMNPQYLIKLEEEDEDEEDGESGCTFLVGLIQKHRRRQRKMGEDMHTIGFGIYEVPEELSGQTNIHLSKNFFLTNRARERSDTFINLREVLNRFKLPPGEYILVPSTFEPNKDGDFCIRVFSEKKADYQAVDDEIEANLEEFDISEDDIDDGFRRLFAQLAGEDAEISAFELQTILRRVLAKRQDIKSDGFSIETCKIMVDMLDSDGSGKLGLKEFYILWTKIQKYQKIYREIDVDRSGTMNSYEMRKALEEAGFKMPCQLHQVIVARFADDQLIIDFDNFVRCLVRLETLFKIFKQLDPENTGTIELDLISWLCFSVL
Sequence (P04632 whole entry partner): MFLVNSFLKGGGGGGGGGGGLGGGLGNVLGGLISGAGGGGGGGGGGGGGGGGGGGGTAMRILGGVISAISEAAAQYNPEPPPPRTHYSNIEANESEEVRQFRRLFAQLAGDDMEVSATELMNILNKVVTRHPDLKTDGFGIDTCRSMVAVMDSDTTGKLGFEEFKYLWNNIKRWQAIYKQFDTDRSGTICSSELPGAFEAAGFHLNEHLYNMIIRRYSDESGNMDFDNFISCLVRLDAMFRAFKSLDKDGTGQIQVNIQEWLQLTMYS
Overview of recorded IC50 for various compounds

Cc1nc(-c2ccccc2F)c(C(=O)NC(C=O)Cc2ccccc2)o1 (centres unmarked); < 3 µM
Cc1cc(C(=O)NC(Cc2ccccc2)C(=O)C(N)=O)n(-c2ccncn2)n1 (centres unmarked); < 3 µM
NC(=O)C(=O)C(Cc1ccccc1)NC(=O)c1cc(C(F)(F)C(F)(F)F)nn1-c1ccccc1 (centres unmarked); < 3 µM
COc1ccc(F)c(-c2oncc2C(=O)NC(Cc2ccccc2)C(=O)C(N)=O)c1 (centres unmarked); < 3 µM
Cc1ncc(C(=O)NC(Cc2ccccc2)C(=O)C(N)=O)n1-c1ccccc1 (centres unmarked); 3 to 10 µM
NC(=O)C(=O)C(Cc1ccccc1)NC(=O)c1cc(Cl)nn1-c1ncccn1 (centres unmarked); < 3 µM
Cn1cc(C(=O)NC(Cc2ccccc2)C(=O)C(=O)NC2CC2)c(-c2ccccc2)n1 (centres unmarked); < 3 µM
CCn1cc(C(=O)NC(Cc2ccccc2)C(=O)C(N)=O)c(-c2ccccc2F)n1 (centres unmarked); < 3 µM

Name the reported IC50 value associated with the compound Cn1cc(C(=O)NC(CC(F)(F)F)C(=O)C(N)=O)c(-c2ccccc2)n1 (centres unmarked) < 3 µM

Name the reported IC50 value associated with the compound Cc1nc(-c2ccccc2)c(C(=O)N[C@@H](Cc2ccc(OS(=O)(=O)C(F)(F)F)cc2)C(=O)C(N)=O)o1 < 3 µM

Name the reported IC50 value associated with the compound NC(=O)C(=O)C(Cc1ccccc1)NC(=O)c1cn(C(F)F)nc1-c1cc2ccccc2cn1 (centres unmarked) < 3 µM

Name the reported IC50 value associated with the compound Cc1noc(-c2ccccc2)c1C(=O)N[C@@H](Cc1ccc(O)cc1)C(=O)C(N)=O < 3 µM

Name the reported IC50 value associated with the compound CC(C)n1cc(C(=O)NC(Cc2ccccc2)C(=O)C(N)=O)c(-c2cccc(F)c2)n1 (centres unmarked) < 3 µM

Name the reported IC50 value associated with the compound NC(=O)C(=O)C(Cc1ccccc1)NC(=O)[C@@H]1CC2(CC2)CN1c1ccccc1 (some centres unmarked) < 3 µM
